test details: Pharmacokinetic experiment in rats
Format: in vivo
experimental context: rat, po; male SD rats, i.g. 20 mg/kg, plasma
measurement label: AUC(0-t) (ng·h/mL)
Answers are plain numbers, in ng·h/mL.

Lookup: Can you share its AUC(0-t)? I mean this molecule: CC(C)(C(=O)Nc1ccc(C#N)c(C(F)(F)F)c1)n1cc(C#CC2CN(c3ccc4c(c3)C(=O)N(C3CCC(=O)NC3=O)C4=O)C2)cn1 (stereo not shown) [Compound 9]
Found: 45600

====

test details: Pharmacokinetic experiment in rats
Type: in vivo
experimental context: rat, po; male SD rats, i.g. 20 mg/kg, plasma
measurement label: half-life

Lookup: Can you share its half-life? I mean this compound: CC(C)(C(=O)Nc1ccc(C#N)c(C(F)(F)F)c1)n1cc(C#CC2CN(c3ccc4c(c3)C(=O)N(C3CCC(=O)NC3=O)C4=O)C2)cn1 (stereo not shown)
Found: 24 h

====

System: Prostate cancer cells 22RV1
test details: Experiment on inhibiting 22RV1 cell proliferation (CellTiter-Glo)
Format: cell-based
experimental context: Homo sapiens, 168 h, 22RV1 cells, 7 days incubation, read-out: IC50 for inhibition of 22RV1 cells
measurement label: IC50 (nM)
Answers are plain numbers, in nM.

Lookup: Can you share its IC50? I mean this compound: CC(C)(C(=O)Nc1ccc(C#N)c(C(F)(F)F)c1)n1cc(C#CC2CN(c3ccc4c(c3)C(=O)N(C3CCC(=O)NC3=O)C4=O)C2)cn1 (stereo not shown) [Compound 9]
Found: 78
